Observed Ki values for Carbonic anhydrase 4 (Homo sapiens) are listed in what follows.

# input Item O=C1c2ccccc2C(=O)N1CC(F)CNS(=O)(=O)c1ccc([N+](=O)[O-])cc1 (stereo not drawn) has what recorded Ki?
# output > 100 µM

# input Item CC(F)(F)CN(CCCCN1C(=O)c2ccccc2C1=O)S(=O)(=O)c1ccc([N+](=O)[O-])cc1 has what recorded Ki?
# output > 100 µM

# input Item CC(F)(F)CN(CCCN1C(=O)c2ccccc2C1=O)S(=O)(=O)c1ccc([N+](=O)[O-])cc1 has what recorded Ki?
# output > 100 µM
